- TESTED ON: T1, EBOV GP on rVSV particles (Ebola virus (EBOV), UniProt Q05320 33-676)
- T1 sequence: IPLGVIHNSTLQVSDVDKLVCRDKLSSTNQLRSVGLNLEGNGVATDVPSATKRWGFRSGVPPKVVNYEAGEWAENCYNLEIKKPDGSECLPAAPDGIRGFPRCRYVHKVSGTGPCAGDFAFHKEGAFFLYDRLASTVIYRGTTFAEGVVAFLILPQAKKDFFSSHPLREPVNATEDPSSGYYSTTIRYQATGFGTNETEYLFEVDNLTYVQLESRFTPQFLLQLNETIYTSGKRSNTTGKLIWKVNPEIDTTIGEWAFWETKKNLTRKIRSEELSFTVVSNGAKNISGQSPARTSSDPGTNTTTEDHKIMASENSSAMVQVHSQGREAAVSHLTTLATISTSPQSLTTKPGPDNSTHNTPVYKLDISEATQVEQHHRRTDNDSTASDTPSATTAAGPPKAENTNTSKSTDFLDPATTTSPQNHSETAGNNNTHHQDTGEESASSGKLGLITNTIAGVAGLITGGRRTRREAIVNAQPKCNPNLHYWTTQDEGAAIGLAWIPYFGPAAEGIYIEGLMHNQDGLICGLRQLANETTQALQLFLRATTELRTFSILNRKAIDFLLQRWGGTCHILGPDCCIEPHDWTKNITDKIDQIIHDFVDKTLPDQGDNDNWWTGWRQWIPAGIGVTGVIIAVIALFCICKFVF
- TEST NAME: cell-based or functional assay
ENDPOINT NAME: IC50 (nM), neutralization of rVSV-GP

>>> assay_value("PE-87 H100A (antibody, V domains shown) VH: QVQLVQSGVTLVQPGGSLRVSCAASGFTFSSYAMSWVRQAPGKGLEWVSAISGLGGSTYYADSVKGRFTISRDNSKNTLYLQMNSLRAEDTAVYYCAKDARVWAAGYHFDYWGQGALVTVSS VL: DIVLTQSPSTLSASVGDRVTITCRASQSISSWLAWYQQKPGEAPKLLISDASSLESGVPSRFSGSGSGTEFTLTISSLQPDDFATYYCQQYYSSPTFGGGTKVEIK")
1
>>> assay_value("PE-87 Y107A (antibody, V domains shown) VH: QVQLVQSGVTLVQPGGSLRVSCAASGFTFSSYAMSWVRQAPGKGLEWVSAISGLGGSTYYADSVKGRFTISRDNSKNTLYLQMNSLRAEDTAVYYCAKDHRVWAAGAHFDYWGQGALVTVSS VL: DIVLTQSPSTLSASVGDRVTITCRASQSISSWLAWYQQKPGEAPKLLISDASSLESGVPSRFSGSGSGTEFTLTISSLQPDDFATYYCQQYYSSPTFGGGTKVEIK")
3
>>> assay_value("PE-87 Y111A (antibody, V domains shown) VH: QVQLVQSGVTLVQPGGSLRVSCAASGFTFSSYAMSWVRQAPGKGLEWVSAISGLGGSTYYADSVKGRFTISRDNSKNTLYLQMNSLRAEDTAVYYCAKDHRVWAAGYHFDAWGQGALVTVSS VL: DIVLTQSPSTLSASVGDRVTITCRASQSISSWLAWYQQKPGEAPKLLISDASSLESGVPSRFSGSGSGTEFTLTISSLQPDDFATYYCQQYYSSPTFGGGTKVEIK")
0.8
>>> assay_value("PE-87 G106A (antibody, V domains shown) VH: QVQLVQSGVTLVQPGGSLRVSCAASGFTFSSYAMSWVRQAPGKGLEWVSAISGLGGSTYYADSVKGRFTISRDNSKNTLYLQMNSLRAEDTAVYYCAKDHRVWAAAYHFDYWGQGALVTVSS VL: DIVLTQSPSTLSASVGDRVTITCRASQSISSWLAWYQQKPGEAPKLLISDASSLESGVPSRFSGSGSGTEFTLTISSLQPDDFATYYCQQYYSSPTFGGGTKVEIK")
0.8
>>> assay_value("PE-87 V102A (antibody, V domains shown) VH: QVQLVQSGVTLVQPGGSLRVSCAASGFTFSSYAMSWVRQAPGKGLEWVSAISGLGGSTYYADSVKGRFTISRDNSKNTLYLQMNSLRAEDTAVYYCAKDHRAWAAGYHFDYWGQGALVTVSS VL: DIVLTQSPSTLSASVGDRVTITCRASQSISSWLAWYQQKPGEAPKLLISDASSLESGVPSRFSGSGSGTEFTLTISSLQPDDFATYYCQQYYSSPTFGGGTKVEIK")
0.6
>>> assay_value("PE-87 D110A (antibody, V domains shown) VH: QVQLVQSGVTLVQPGGSLRVSCAASGFTFSSYAMSWVRQAPGKGLEWVSAISGLGGSTYYADSVKGRFTISRDNSKNTLYLQMNSLRAEDTAVYYCAKDHRVWAAGYHFAYWGQGALVTVSS VL: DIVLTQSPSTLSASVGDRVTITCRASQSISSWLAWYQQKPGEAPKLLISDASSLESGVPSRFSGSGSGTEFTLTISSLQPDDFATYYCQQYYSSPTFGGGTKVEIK")
2
>>> assay_value("PE-87 R101A (antibody, V domains shown) VH: QVQLVQSGVTLVQPGGSLRVSCAASGFTFSSYAMSWVRQAPGKGLEWVSAISGLGGSTYYADSVKGRFTISRDNSKNTLYLQMNSLRAEDTAVYYCAKDHAVWAAGYHFDYWGQGALVTVSS VL: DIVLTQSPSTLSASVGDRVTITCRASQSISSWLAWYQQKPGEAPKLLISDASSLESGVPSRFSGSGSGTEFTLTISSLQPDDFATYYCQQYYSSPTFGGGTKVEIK")
3.2
>>> assay_value("PE-87 H108A (antibody, V domains shown) VH: QVQLVQSGVTLVQPGGSLRVSCAASGFTFSSYAMSWVRQAPGKGLEWVSAISGLGGSTYYADSVKGRFTISRDNSKNTLYLQMNSLRAEDTAVYYCAKDHRVWAAGYAFDYWGQGALVTVSS VL: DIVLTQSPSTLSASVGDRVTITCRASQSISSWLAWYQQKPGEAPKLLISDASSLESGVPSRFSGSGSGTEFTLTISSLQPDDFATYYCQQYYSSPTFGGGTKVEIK")
3.2
>>> assay_value("PE-87 F109A (antibody, V domains shown) VH: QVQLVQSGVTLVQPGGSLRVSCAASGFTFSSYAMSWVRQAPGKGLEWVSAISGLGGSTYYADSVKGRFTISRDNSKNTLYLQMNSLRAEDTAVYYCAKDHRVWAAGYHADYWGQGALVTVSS VL: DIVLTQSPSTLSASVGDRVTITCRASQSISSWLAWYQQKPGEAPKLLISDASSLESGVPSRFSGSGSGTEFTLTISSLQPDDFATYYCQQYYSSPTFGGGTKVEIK")
4.2

This collection of values is drawn from patent US20180244758A1.
